Below is a list of entries, each paired with its recorded IC50, IL-6 secretion by HFFF2 human fibroblasts, cytokine at 25 ng/ml value.
Study target: T1, human IL-17A homodimer (human, UniProt Q16552 20-155, limits assumed)
T1 sequence (looked up): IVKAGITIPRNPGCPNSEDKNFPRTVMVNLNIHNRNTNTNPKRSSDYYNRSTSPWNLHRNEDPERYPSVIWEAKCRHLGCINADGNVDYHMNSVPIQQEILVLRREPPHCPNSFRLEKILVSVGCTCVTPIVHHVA
Measurement notes: cell-based or functional assay
Quantity: IC50, IL-6 secretion by HFFF2 human fibroblasts, cytokine at 25 ng/ml

Binder	Result
4H11 antibody (antibody, IgG1, V domains shown, also called Mab09; 4H11 IgG1) VH: EVQLVESGGGLVQPGGSLKLSCAASGFTFSGSSMHWVRQASGKGLDWVGRIRSKANSYATAYAASVIGRFTISRDDSKNTAYLQMNSLKTEDTAVYYCTTSVATTLTDYYGMDVWGQGTTVTVSS VL: EIVLTQSPATLSLSPGERATLSCRASQSVSSYLAWYQQKPGQAPRLLIYDASNRATGIPARFSGSGSGTDFTLTISSLEPEDFAVYYCQQRSNWPPFTFGPGTKVDIK	108 nM
39F12 antibody (antibody, IgG4, V domains shown, also called Mab06a; 39F12 IgG4) VH: QVQLVQSGAEVKKPGSSVKVSCKASGGTLSSYAFSWVRQAPGQGLEWMGGIIPFFGTTNYAQKFQGRVIITADESTNTAYMELSGLRSEDTAVYYCARDRDYYGLGSPFYYYGMDVWGQGTTVTVSS VL: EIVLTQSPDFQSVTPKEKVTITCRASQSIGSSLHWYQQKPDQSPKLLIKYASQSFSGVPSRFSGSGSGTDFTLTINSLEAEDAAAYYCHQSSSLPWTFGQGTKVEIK	14 nM
30D12BF antibody (antibody, V domains shown) VH: QVQLVQSGAEVKKPGASVKVSCKASGYTFTSYDINWVRQATGQGLEWMGWLNPDSGVIRYAQKFQGRVTMTRDTSISTAYMELSSLRSEDTAVYYCAREWFGELPSYYFYSGMDVWGQGTTVTVSS VL: EIVLTQSPATLSLSPGERATLSCRASQSVSSYLAWYQQKPGQAPRLLIYDASNRATGIPARFSGSGSGTDFTLTISSLEPEDFAVYYCQQRSNWPPTFGPGTKVDIK	3 nM
39F12A antibody (antibody, V domains shown) VH: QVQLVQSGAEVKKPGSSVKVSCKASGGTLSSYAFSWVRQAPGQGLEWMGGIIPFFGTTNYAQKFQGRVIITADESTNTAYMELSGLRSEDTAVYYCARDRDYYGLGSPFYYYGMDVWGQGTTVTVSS VL: EIVLTQSPDFQSVTPKEKVTITCRASQSIGSSLHWYQQKPDQSPKLLIKYASQSFSGVPSRFSGSGSGTDFTLTINSLEAEDAATYYCHQSSSLPWTFGQGTKVEIK	21 nM
29D8 antibody (antibody, IgG1, V domains shown) VH: QVQLVQSGAEVKKPGASVKVSCKAFAYTFSTYGISWVRQAPGQGLEWMGWISAYNSNTNYAQKVQGRITMTTDTSTRTAYMELRGLRSDDTAVYFCATFFGGHSGYHYGLDVWGQGTTVTVSS VL: EIVLTQSPATLSLSPGERATLSCRASQSVSSYLAWYQQKPGQAPRLLIYDASNRATGIPARFSGSGSGTDFTLTISSLEPEDFAVYYCQQRSNWPPYTFGQGTKLEIK	36 nM
30D12 antibody (antibody, IgG1, V domains shown, Fully human monoclonal antibody; also called 30D12 IgG1) VH: QVQLVQSGAEVKKPGASVKVSCKASGYTFTSYDINWVRQATGQGLEWMGWMNPDSGVIRYAQKFQGRVTMTRNTSISTAYMELNSLRSEDTAVYYCAREWFGELPSYYFYSGMDVWGQGTTVTVSS VL: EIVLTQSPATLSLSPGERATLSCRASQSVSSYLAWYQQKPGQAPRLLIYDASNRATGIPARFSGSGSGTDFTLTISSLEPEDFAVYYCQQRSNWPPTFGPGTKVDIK	4.2 nM
